Overview of recorded Human BCMA response for various binders
Target: T1, His-tagged human BCMA (Acro Biosystems, Cat. #BCA-H522y) (human, UniProt Q02223 1-54)
T1 construct: also called huBCMA; P1; not shown: His tag
T1 sequence: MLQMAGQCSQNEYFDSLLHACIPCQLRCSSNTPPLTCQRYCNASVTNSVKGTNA
Assay: BLI, His-tagged human BCMA on HIS1K tip
Give the figure by itself; no unit, no explanation.

Recorded Human BCMA response, per entry:
552-LN2-F8 hIgG1 (antibody, V domains shown, Human-mouse chimeric antibody, human IgG1 format; also called [9]) VH: QIQLVQSGPELKKPGETVKISCKASGYTFTDYTMYWVKQAPGKGLKWMGWINTETGEPTYADDFKGRFVFSLETSANTAYLQINNLKNEDTATYFCAISYYYGMDYWGQGTSVTVTS VL: DIILTQSPASLAVSLGQRATITCRASKSVSTSGYNFVYWYQQKPGQPPKLLIYLASNLESGVPARFSGSGSGTDFTLNIHPVEEEDAATYYCQHSRELPRTFGGGTKLEIKR	2.31
539-SP5-D7 hIgG1 (antibody, V domains shown, Human-mouse chimeric antibody, human IgG1 format, lambda light chain; also called [4]) VH: EVMLVDSGGNLVKPGGSLKLSCAASGFTFSNYVISWVRQTPEKRLEWVATISTVGTNTYYPDSVRGRFTISRDNAENTLYLQMSSLRSEDTAIYYCSRHKYGYDDPSYAMDYWGQGTSVTVSS VL: QLVLTQSSSASFSLGASAKLTCTLSSQHSTYTIEWYQQQPLKPPKYVMELKKDGSHSTGDGIPDRFSGSSSGADRYLSISNIQAEDEAIYICGVGDTVKEQFVYVFGGGTKVTVLG	2.14
552-LN1-F4 hIgG1 (antibody, V domains shown, Human-mouse chimeric antibody, human IgG1 format; also called [7]) VH: QIQLVQSGPELKKPGETVKISCMASGYTFTDYSVRWVKQAPGKGLEWMGWINTETGEPTYAHDFKGRFAFSLETSASTAYLQINNLKDEDTSTYFCAISYYYALDYWGHGTSVTVSS VL: DIVLTQSPASLTVSLGQRATISCRASKSVSTSGYNFLHWYQQKPGQPPKLLIYLASNLESGAPARFSGSGSGTDFTLNIHPVEEEDAATYYCQHSRELPRTFGGGTKLEIKR	2.33
538-SP5-B10 hIgG1 (antibody, V domains shown, Human-mouse chimeric antibody, human IgG1 format) VH: EVQLQQSGPELVKPGASVKMSCKASGYTFTSYVMHWVKQKPGRGLEWIAYILPFNDVTKYNEKFKGKATLTSDKSSNTAYMELSSLTSEDSAVYYCARWEWDDGYFDYWGQGTTLTVSS VL: DAVMTQTPLSLPVSLGDQASISCRSSQSLENSNGNTYLNWYLQKPGQSPQLLIYRVSNRFSGVLDRFSGSGSGTDFTLKISRVEAEDLGVYFCLQVSHVPFTFGAGTKLELKR	2.35
J6M0 (antibody, V domains shown, also called J6M0-hIgG1; anti-BCMA) VH: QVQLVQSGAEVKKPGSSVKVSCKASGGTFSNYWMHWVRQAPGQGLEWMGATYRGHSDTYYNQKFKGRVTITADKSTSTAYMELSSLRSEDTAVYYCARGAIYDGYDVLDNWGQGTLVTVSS VL: DIQMTQSPSSLSASVGDRVTITCSASQDISNYLNWYQQKPGKAPKLLIYYTSNLHSGVPSRFSGSGSGTDFTLTISSLQPEDFATYYCQQYRKLPWTFGQGTKLEIK	2.53

Which Human BCMA response value is on record for 539-SP2-H3 hIgG1 (antibody, V domains shown, Human-mouse chimeric antibody, human IgG1 format) VH: EVQLQQSGPELVKPGASVKMSCKASGYTFTSYVIHWVKQKPGQGLEWIGYVLPYNDVIKYNEKFKGKATLTSDKSSSTAYMDLSSLTSEDSAVYYCARWGDFDEGIWFPYWGQGTLVTVSA VL: DVLMTQTPLSLPVSLGDHASVSCRSSQSIVHTDGNTYLEWYLQKPGQSPKLLIYKVSNRFSGVPDRFSGSGSGTDFTLKISRVEAEDLGVYYCFQGSHVPWTFGGGTKLEIKR ?
2.36

Same lookup for 539-SP1-C8 hIgG1 (antibody, V domains shown, Human-mouse chimeric antibody, human IgG1 format; also called [2]) VH: EVQLQQSGPELVKPGSSVKMSCKASGYTFTNYVMHWVKQKPGQGLEWIGYILPYNDGTKYNEKFKGKATLTSDKSSSTAYMEFSVLTSEDSAVYYCARYDYEGSFDYWGQGTALTVSS VL: DIQMTQTTSSLSASLGDRVTISCRASQDISNYLNWYQQKPDGTVKLLMCYTSRLHSGVPSRFSGSGSGTDFSLTISNLEQEDIATYFCQQGNTFPPTFGGGTKLEIKR , please.
2.46

// query: 552-LN2-E6 hIgG1 (antibody, V domains shown, Human-mouse chimeric antibody, human IgG1 format; also called [8]) VH: QIQLVQSGPELKKPGETVKISCMASGYTFTDYSVRWVKQAPGKGLEWMGWINTETGEPTYADDFKGRFAFSLETSASTAYLQINNLKNEDTATYFCAISYYYALDYWGHGTSVTVSS VL: DIVLTQSPASLTVSLGQRATISCRASKSVSTSVYSFLHWYQQKPGQPPKLLIYLASNLESGVPARFSGSGSGTDFTLNIHPVEEEDAATYYCQHSRELPRTFGGGTKLEIKR
2.37

Consider next the binder 552-LN1-E9 hIgG1 (antibody, V domains shown, Human-mouse chimeric antibody, human IgG1 format; also called [6]) VH: QIQLVQSGPELKKPGETVKISCKASGYTFTDYSIYWVKQAPGKGLKWMGWINTETGEPTYADDFKGRFAFSLETSASSAYLQINTLKNEDTATYFCSISYYYAMDYWGQGTSVTVSS VL: DIVLTQSPASLAVSLGQRATISCRASKSVSTSGYSFLHWYQQKPGQPPKLLIYFASNLESGVPARFSGSGSGTDFTLNIHPVEEEDAATYYCQHSRELPRTFGGGTKLEIKR in the same way.
2.76

Repeat for the following binder: 539-SP7-F4 hIgG1 (antibody, V domains shown, Human-mouse chimeric antibody, human IgG1 format) VH: EVQLQQSGPELVKPGASMKISCKASGYSFTGYIMNWVKQSHGKNLEWIGLINPYNGDSIYNQKFKGKATLTVDKSSSTAYMELFSLTSEDSTVYYCAAGEEFAYWGQGTLVTVSA VL: DIQMTQTSSSLSASLGDRVTISCRASQDISIYLNWFQQKPDGTVKLLIYFTSRLHPGVPSRFSASGSGTDYSLTISHLEHEDIATYFCQQGNTLPRTFGGGTKVELKR
2.61
